Please go through the items and note down their RP-LC retention time.
# experiment: gradient 5% acetonitrile 3 min, to 50% in 2 min, to 85% in 15 min, held 3 min, 100 µL/min
# run_parameters: column: Zorbax Extend-C18 2.1 x 50 mm; eluents: water / acetonitrile, 0.1% formic acid
The reply must contain the numeric value and, after it, the unit.

If you can, please state the reported RP-LC retention time value of O=C(Nc1ccnn1Cc1ccco1)C(c1ccccc1)c1ccccc1 .
926 s

What do you have for CN1CCCn2cc(S(=O)(=O)NCCc3ccc(Cl)cc3)cc2C1=O ?
752 s

What do you have for COc1ccc(NC(=O)N2CCc3cn(C)c4cccc(c34)C2)cc1Cl ?
917 s

What do you have for CCN(CC)CCNC(=O)C1CCN(c2nc3ccccc3n3cccc23)CC1 ?
579 s

What do you have for CC(=O)N1CCc2ccc(C(=O)NC3CCCCCC3)cc21 ?
778 s

What do you have for NC(=O)c1cc(-c2ccc(F)cc2)nc2ccccc12 ?
776 s

What do you have for Cc1ccc(S(=O)(=O)Nc2cccc(-c3nc4ncccn4c3C)c2)cc1 ?
670 s

What do you have for O=C(Cc1cccs1)Nc1nnc(SCc2nnc(-c3ccc4c(c3)OCO4)o2)s1 ?
814 s

* * *

Please go through the items and note down their RP-LC retention time.
# experiment: gradient 5% acetonitrile 3 min, to 50% in 2 min, to 85% in 15 min, held 3 min, 100 µL/min
# run_parameters: column: Zorbax Extend-C18 2.1 x 50 mm; eluents: water / acetonitrile, 0.1% formic acid
The reply must contain the numeric value and, after it, the unit.

If you can, please state the reported RP-LC retention time value of CC(C)COc1cc(=O)n2c(c1C(=O)NCC1CC1)CCCCC2 .
708 s

What do you have for COCCCNC(=O)C1c2cc(OC)c(OC)cc2C(=O)N(C)C1c1ccc(OC)cc1 (stereo not given) ?
685 s

What do you have for O=C(CSc1ccc(N2CCN(c3ccc(F)cc3)CC2)nn1)NCC1CCCO1 (stereo not given) ?
689 s

What do you have for CSc1ccc(-c2nc3ccc(Cl)cn3c2Nc2ccc(Cl)cc2)cc1 ?
993 s

What do you have for Cc1ccc(C)c(NC(=O)c2cn(-c3ncccc3-c3nc(C4CC4)no3)cn2)c1 ?
973 s

* * *

# experiment: gradient 5% acetonitrile 3 min, to 50% in 2 min, to 85% in 15 min, held 3 min, 100 µL/min
# run_parameters: column: Zorbax Extend-C18 2.1 x 50 mm; eluents: water / acetonitrile, 0.1% formic acid
parameter_measured: RP-LC retention time (s)
Response body: numeric value in s, unit text excluded.

If you can, please state the reported RP-LC retention time value of CCCCN(C)S(=O)(=O)c1cc(-c2nnc(C)o2)co1 .
821

What do you have for Cc1ccc(Cn2cc(-c3ccncc3)cc2C(=O)N2CCN(C3CCCCC3)CC2)cc1 ?
602

What do you have for CCC(=O)N(C)CCc1noc(-c2ccc(C(=O)NCCC(C)C)cc2)n1 ?
806

What do you have for O=C1c2cccc(OCC(=O)N3CCCc4ccccc43)c2CCN1Cc1cccnc1 ?
594

What do you have for O=C(CN1CCC(c2nc(-c3ccc(F)cc3)no2)CC1)NCc1ccc2c(c1)OCO2 ?
720

What do you have for O=C(C1=CN(c2cccc(F)c2)c2ccccc2S1(=O)=O)N1CCOCC1 ?
730

What do you have for O=C(Cn1cnc2nc(N3CCC(C(=O)NC4CC4)CC3)sc2c1=O)Nc1ccc2c(c1)CCC2 ?
670

What do you have for O=C(Cn1cccc(S(=O)(=O)N2CCOCC2)c1=O)NCc1ccc(Cl)cc1 ?
666

What do you have for CN1Cc2ccccc2-n2ccnc2C12CCN(C(=O)NC1CCCCC1)CC2 ?
611

What do you have for CCC(C)(C)NC(=O)C1CCN(S(=O)(=O)c2ccc3c(c2)NC(=O)CO3)CC1 ?
745

What do you have for CN(C(=O)C1CCCN(c2ncnc3c2nc2n3CCCCC2)C1)c1ccccc1 (centres undefined) ?
766

What do you have for Cn1nc(COc2ccccc2)c2c1CCN(C(=O)c1ccccn1)C2 ?
687

What do you have for COc1ccc(-c2noc(C3CCCN3C(=O)c3ccc4c(c3)OCO4)n2)cc1OC (centres undefined) ?
836

What do you have for CSc1cccc(N2C=C(C(=O)N3CCCC3)S(=O)(=O)c3ccccc32)c1 ?
819

What do you have for Cc1nn(C2CCS(=O)(=O)C2)c(C)c1S(=O)(=O)NCc1ccco1 (centres undefined) ?
638

What do you have for COc1cccc(CNC(=O)N2CCCC(C)(C(=O)NCc3ccc(F)cc3)C2)c1 (centres undefined) ?
815

What do you have for O=C(Nc1ccc2ncnc(N3CCCC3)c2c1)C1CCC1 ?
628

What do you have for CC1=C(c2ccccc2)S(=O)(=O)N=C1N1CCCN(C(=O)c2ccccn2)CC1 ?
693

What do you have for Cc1noc(/C=C/c2ccc(F)cc2F)c1S(=O)(=O)N1CCC(C(=O)Nc2nccs2)CC1 ?
1050

What do you have for c1ccc2c(OCc3nc4ccccc4[nH]3)cccc2c1 ?
626

What do you have for Cc1cc(C(=O)Nc2nnc(SCC(=O)Nc3ccccc3C(F)(F)F)s2)no1 ?
767

What do you have for CN(C)c1ccc(CNC(=O)CCc2c(-c3ccc(Br)cc3)nc3ccccn23)cc1 ?
599

What do you have for O=C(c1cccc(Cl)c1)N1CCC(n2c(-c3ccoc3)nc3cccnc32)C1 (centres undefined) ?
776

What do you have for CCCCNc1c(C(=O)OC)c(=O)[nH]c2ccc(F)cc12 ?
734

* * *

# experiment: gradient 5% acetonitrile 3 min, to 50% in 2 min, to 85% in 15 min, held 3 min, 100 µL/min
# run_parameters: column: Zorbax Extend-C18 2.1 x 50 mm; eluents: water / acetonitrile, 0.1% formic acid
parameter_measured: RP-LC retention time (s)
Response body: numeric value in s, unit text excluded.

If you can, please state the reported RP-LC retention time value of CCCCC(=O)Nc1ccc2nc(N3CCN(c4ccccc4)CC3)cc(C(=O)O)c2c1 .
672

What do you have for CCOc1ccccc1NC(=O)Nc1cccc(-c2ccc(N3CCOCC3)nn2)c1 ?
670

What do you have for Cc1nn(-c2ccccc2)c(C)c1S(=O)(=O)N1CCC(C(=O)Nc2ccccc2F)CC1 ?
950

What do you have for Cc1nc(-c2ccncc2)nc2c1CCC(=O)N2CC1COCCO1 (stereo not given) ?
591

What do you have for CCCn1cnc2cc(CNC(=O)c3cc4ccccc4[nH]3)ccc21 ?
659

* * *

# experiment: gradient 5% acetonitrile 3 min, to 50% in 2 min, to 85% in 15 min, held 3 min, 100 µL/min
# run_parameters: column: Zorbax Extend-C18 2.1 x 50 mm; eluents: water / acetonitrile, 0.1% formic acid
parameter_measured: RP-LC retention time (s)
Response body: numeric value in s, unit text excluded.

If you can, please state the reported RP-LC retention time value of COc1ccc(-n2ccc(=O)c(-c3nc(-c4cccc(Br)c4)no3)n2)cc1 .
985

What do you have for CNC(=O)c1nc(-c2ccc(C)cc2)n2c1CCCCC2 ?
702

What do you have for CCc1ccccc1NC(=O)CSc1nnc2ccc(C(=O)Nc3cccc(F)c3)cn12 ?
776

What do you have for CCC(=O)N(C1CCOCC1)C1CCN(S(=O)(=O)c2ccccc2CC)CC1 ?
908

What do you have for Cc1cc(-c2nnc(C3CCC3)o2)c(C)n1CC(=O)NCc1ccc(F)cc1Cl ?
899

What do you have for CCCS(=O)(=O)N1CCc2ccc(NC(=O)c3ccno3)cc2C1 ?
716

What do you have for CC(C)CNC(=O)C1CCN(c2nc3ccsc3c(=O)n2-c2ccccc2)CC1 ?
786

What do you have for O=S(=O)(Nc1cccc(-c2nc(-c3cccc(Br)c3)co2)c1)c1cccs1 ?
1230

What do you have for O=C(NCc1ccc(F)cc1)N1CCC(c2noc(-c3ccccn3)n2)C1 (stereo unspecified) ?
813

What do you have for COc1ccc(-c2cc(C(N)=O)c(C)n2C)cc1 ?
729

What do you have for COc1ccc(-c2noc(Cn3ccn(-c4cc(C)ccc4C)c(=O)c3=O)n2)cc1 ?
920

* * *

# experiment: gradient 5% acetonitrile 3 min, to 50% in 2 min, to 85% in 15 min, held 3 min, 100 µL/min
# run_parameters: column: Zorbax Extend-C18 2.1 x 50 mm; eluents: water / acetonitrile, 0.1% formic acid
Please go through the items and note down their RP-LC retention time.
Response body: numeric value in s, unit text excluded.

If you can, please state the reported RP-LC retention time value of CCOCCCNC(=O)C1CCCN(c2ncc(-c3cccc(F)c3)cn2)C1 (stereo not drawn) .
902

What do you have for COc1ccc(-c2ncc3c(n2)CCN(C(=O)c2ccc(C)c(C)c2)C3)cc1 ?
1030

What do you have for COc1cc(N2CCN(S(=O)(=O)c3cccc(C(F)(F)F)c3)CC2)nc(OC)n1 ?
947
